Property: pKd; scope: individual binders
Target: T1, EsCas13d, nuclease-dead (Eubacterium siraeum, UniProt B0MS50, R295A;H300A;R849A;H854A)
T1 sequence: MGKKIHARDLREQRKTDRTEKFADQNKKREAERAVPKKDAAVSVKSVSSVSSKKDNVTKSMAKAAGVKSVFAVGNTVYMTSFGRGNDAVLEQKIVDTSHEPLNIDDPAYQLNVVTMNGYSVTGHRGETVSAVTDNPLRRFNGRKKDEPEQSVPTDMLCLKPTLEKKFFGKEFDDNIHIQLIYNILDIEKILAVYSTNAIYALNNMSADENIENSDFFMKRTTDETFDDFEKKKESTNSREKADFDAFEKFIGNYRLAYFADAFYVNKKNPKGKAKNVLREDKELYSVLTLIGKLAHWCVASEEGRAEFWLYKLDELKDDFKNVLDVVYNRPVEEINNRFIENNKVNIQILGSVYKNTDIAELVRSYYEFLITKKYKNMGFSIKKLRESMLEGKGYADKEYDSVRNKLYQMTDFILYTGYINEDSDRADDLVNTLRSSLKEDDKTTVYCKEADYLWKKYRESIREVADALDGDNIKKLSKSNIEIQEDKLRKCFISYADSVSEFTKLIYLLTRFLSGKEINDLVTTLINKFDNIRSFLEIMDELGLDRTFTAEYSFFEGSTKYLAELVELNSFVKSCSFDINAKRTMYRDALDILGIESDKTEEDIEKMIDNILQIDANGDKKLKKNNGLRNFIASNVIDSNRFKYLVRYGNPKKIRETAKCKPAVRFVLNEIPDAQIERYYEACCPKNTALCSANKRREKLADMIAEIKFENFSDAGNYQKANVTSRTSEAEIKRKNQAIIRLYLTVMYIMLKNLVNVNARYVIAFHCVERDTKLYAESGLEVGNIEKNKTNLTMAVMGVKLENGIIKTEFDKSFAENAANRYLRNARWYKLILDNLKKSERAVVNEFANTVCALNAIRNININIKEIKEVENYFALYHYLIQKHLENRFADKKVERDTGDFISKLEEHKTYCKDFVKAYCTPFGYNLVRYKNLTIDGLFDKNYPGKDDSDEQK
Assay: crRNA (strand 1, pre-loaded); Mg2+; 40 mM Tris-HCl pH 7.5, 150 mM NaCl, 6 mM MgCl2, 1 mM DTT, 0.1% Tween-20, 0.2 mg/ml BSA; 25 C; 10 min per concentration, then washed
Settings: tags: His6-TwinStrep-SUMO cleaved; N-terminal SNAP kept (SNAP-Surface 488); label: 3' end held by stalled T7 RNA polymerase
Bear in mind: pKd is minus log10 of a mol/L concentration; give just that figure.

Previously resolved entries follow.
binder: target 1 G5C,U19C (mixed) RNA 1: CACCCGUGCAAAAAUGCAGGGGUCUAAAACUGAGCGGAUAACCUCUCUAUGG RNA 2: GGGAAUGGAUCCACAUCUACGAAUUCGUACCACAGAGAGGUUAUCCCCUCACCGAGAUCGGAAGAGCACACGU
assayValue: 7.49

binder: target 1 MT 5'PFS GUC 3'PFS CCG (mixed) RNA 1: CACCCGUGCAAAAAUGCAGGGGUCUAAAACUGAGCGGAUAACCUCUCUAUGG RNA 2: GGGAAUGGAUCCACAUCUACGAAUUCGUCCCAUAGAGAGGUUAUCCGCUCACCGAGAUCGGAAGAGCACACGU
assayValue: 7.83

binder: target 1 del2,del9 (mixed) RNA 1: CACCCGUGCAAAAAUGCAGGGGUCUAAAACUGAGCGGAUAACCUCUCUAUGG RNA 2: GGGAAUGGAUCCACAUCUACGAAUUCGUACCAUAGAGAGGUUUCCGCUACCGAGAUCGGAAGAGCACACGU
assayValue: 7.20

Entry target 1 G12U,A18U (mixed) RNA 1: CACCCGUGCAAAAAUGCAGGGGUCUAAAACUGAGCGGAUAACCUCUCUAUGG RNA 2: GGGAAUGGAUCCACAUCUACGAAUUCGUACCAUUGAGAGUUUAUCCGCUCACCGAGAUCGGAAGAGCACACGU : reported pKd = ?
7.36

Entry target 2 MT 5'PFS AGU 3'PFS CUG (mixed) RNA 1: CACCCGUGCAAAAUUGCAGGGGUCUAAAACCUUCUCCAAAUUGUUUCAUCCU RNA 2: GGGAAUGGAUCCACAUCUACGAAUUCAGUAGGAUGAAACAAUUUGGAGAAGCUGAGAUCGGAAGAGCACACGU : reported pKd = ?
7.94

Entry target 1 G5U,A16U (mixed) RNA 1: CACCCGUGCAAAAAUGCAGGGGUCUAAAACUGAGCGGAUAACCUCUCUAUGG RNA 2: GGGAAUGGAUCCACAUCUACGAAUUCGUACCAUAGUGAGGUUAUCCUCUCACCGAGAUCGGAAGAGCACACGU : reported pKd = ?
7.18

Entry target 1 MT 5'PFS GUU 3'PFS ACG (mixed) RNA 1: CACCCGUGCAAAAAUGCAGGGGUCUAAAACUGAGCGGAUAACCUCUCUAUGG RNA 2: GGGAAUGGAUCCACAUCUACGAAUUCGUUCCAUAGAGAGGUUAUCCGCUCAACGAGAUCGGAAGAGCACACGU : reported pKd = ?
7.48
